Target: PARK7 (Homo sapiens, UniProt Q99497)
Sequence (Q99497 1-189): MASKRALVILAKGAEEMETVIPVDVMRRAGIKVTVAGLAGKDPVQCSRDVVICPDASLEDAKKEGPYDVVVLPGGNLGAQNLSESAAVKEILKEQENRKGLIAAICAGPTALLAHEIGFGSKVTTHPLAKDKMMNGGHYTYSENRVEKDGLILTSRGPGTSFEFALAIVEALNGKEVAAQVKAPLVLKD
Assay: High-throughput screen of the crude compound library, PARK7 fluorescence polarization (FP) assay with FP reagent JYQ-107
Assay type: biochemical
Conditions: 1.25 µM, crude compound library; read-out: HTS FP assay %Inhibition (1.25 µM)
MEASURED PROPERTY: inhibition at 1.25 µM (%)

COMPOUND: N#CN1CC[C@@H](C(=O)Nc2nc3c(s2)CN(C(=O)C2CCN(C(=O)c4ccccn4)CC2)CC3)C1 [compound 158]
TESTED ON: PARK7 (Homo sapiens, UniProt Q99497)
UNIT SYMBOL: %
inhibition at 1.25 µM: 69.2

(P) Cc1cnn(-c2c(C(=O)N3CCc4nc(NC(=O)[C@@H]5CCN(C#N)C5)sc4C3)c(C)nn2C)c1 [compound 26]
(Q) Cc1ccc(-c2cc(C(=O)N3CCc4nc(NC(=O)[C@@H]5CCN(C#N)C5)sc4C3)n[nH]2)s1 [Compound 165]
Between the entries labeled P and Q , whose measured inhibition at 1.25 µM is lower? // output: label of the selected item
P
(P: 61.4%, Q: 95.1%)
